Reported values of GI50 for individual entries
# Tested on: Malme-3M
# assayProtocol: NCI tumour cell line growth inhibition, 48 h
The source made the active and inactive calls. No stated cut-off is given here; in the data, active = GI50 up to about 1.1 µM and inactive = higher.

Answered cases to consult:
{"columns": ["compound", "GI50"],
 "data": [
  ["CCCCCC(CO)C(O)(C(F)(F)F)C(F)(F)F (stereo not drawn)", "> 10 µM (inactive)"],
  ["CC(=O)NCC1(c2ccccc2)CCN(CC2COc3ccccc3O2)CC1 (stereo not drawn)", "> 100 µM (inactive)"]
]}

Next compound, please.
What measured GI50 goes with COC(=O)c1c(C)cccc1C1CN=NC12Cc1ccccc1C2=O (stereo not drawn) ? > 45.1 µM (inactive)
